Where these numbers come from: ChEMBL document CHEMBL1671683

assay: Cmax in two-compartment pharmacokinetic/pharmacodynamic model at 200 mg, bid administered as 0.5 hr infusion over 24 hrs
Assay type: ADME, organism-based
Design: dose 200 mg
experimental parameters: iv
reported endpoint: Cmax (ng/mL)
Enter your answer as a number in ng/mL; do not include the unit.

CC(=O)NC[C@H]1CN(c2ccc(N3CCOCC3)c(F)c2)C(=O)O1 yielded Cmax of 4790

====

assay: Apparent volume of distribution in two-compartment pharmacokinetic/pharmacodynamic model at 200 mg, bid administered as 0.5 hr infusion over 24 hrs
Type: ADME, organism-based
experimental parameters: in vivo, iv
reported endpoint: Vd (L)
Use L as the unit, but write only the number.

Value of measured Vd for the entry CC(=O)NC[C@H]1CN(c2ccc(N3CCOCC3)c(F)c2)C(=O)O1 : 137

====

assay: AUC in two-compartment pharmacokinetic/pharmacodynamic model at 600 mg, bid administered as 0.5 hrs infusion
Type: ADME
experimental parameters: iv
reported endpoint: AUC at 0.5 h (ng·h/mL)
Express it in ng·h/mL; write the number only.

Record summary for CC(=O)NC[C@H]1CN(c2ccc(N3CCOCC3)c(F)c2)C(=O)O1 : reported AUC at 0.5 h = 43000

====

assay: Mean residence time in two-compartment pharmacokinetic/pharmacodynamic model at 800 mg, bid administered as 0.5 hrs infusion
Format: ADME, organism-based
experimental parameters: iv
reported endpoint: MRT (h)
Please give a number only; it is taken to be in h.

Please fill in: MRT reported for CC(=O)NC[C@H]1CN(c2ccc(N3CCOCC3)c(F)c2)C(=O)O1 = 6.55

====

assay: Elimination half-life in healthy human at 600 mg, iv, bid administered as 0.5 hr infusion
Assay type: ADME, organism-based
experimental parameters: in vivo, read-out: beta t1/2 (converted)
reported endpoint: half-life (h)
Number only, in h; omit the unit.

Sample CC(=O)NC[C@H]1CN(c2ccc(N3CCOCC3)c(F)c2)C(=O)O1 [LINEZOLID] ; half-life observed: 5.1

====

assay: Apparent volume of distribution in two-compartment pharmacokinetic/pharmacodynamic model at 800 mg, bid administered as 0.5 hr infusion over 24 hrs
Format: ADME, organism-based
experimental parameters: in vivo, iv
reported endpoint: Vd (L)
Entry rule: numbers only, all in L.

Note to self: Vd recorded for CC(=O)NC[C@H]1CN(c2ccc(N3CCOCC3)c(F)c2)C(=O)O1 was 102

====

assay: AUC in two-compartment pharmacokinetic/pharmacodynamic model at 200 mg, bid administered as 0.5 hrs infusion
Assay type: ADME
experimental parameters: iv
reported endpoint: AUC at 0.5 h (ng·h/mL)
The reply should be a number in ng·h/mL, with the unit left off.

Lookup result for CC(=O)NC[C@H]1CN(c2ccc(N3CCOCC3)c(F)c2)C(=O)O1 ; measured AUC at 0.5 h: 10100

====

assay: in vitro
experimental parameters: two-compartment pharmacokinetic/pharmacodynamic model, iv, 800 mg
Description: Terminal half-life in two-compartment pharmacokinetic/pharmacodynamic model at 800 mg, bid administered as 0.5 hrs infusion
reported endpoint: half-life at 0.5 h (h)
Only the number, expressed in h, is required.

Recorded half-life at 0.5 h (compound CC(=O)NC[C@H]1CN(c2ccc(N3CCOCC3)c(F)c2)C(=O)O1 ): 5.01

====

assay: Apparent volume of distribution in two-compartment pharmacokinetic/pharmacodynamic model at 800 mg, bid administered as 0.5 hrs infusion
Format: ADME, organism-based
experimental parameters: iv
reported endpoint: Vd (L)
Your answer is read as L, so omit the unit and give the number.

response.value for CC(=O)NC[C@H]1CN(c2ccc(N3CCOCC3)c(F)c2)C(=O)O1 (field: Vd) = 124

====

assay: Tmax in two-compartment pharmacokinetic/pharmacodynamic model at 200 mg, bid administered as 0.5 hr infusion over 24 hrs
Assay type: ADME, organism-based
experimental parameters: iv
reported endpoint: Tmax (min)
Answer format: numeric, min implied, no suffix.

According to the records, this compound CC(=O)NC[C@H]1CN(c2ccc(N3CCOCC3)c(F)c2)C(=O)O1 [LINEZOLID] displays Tmax of 30

====

assay: Mean residence time in two-compartment pharmacokinetic/pharmacodynamic model at 800 mg, bid administered as 0.5 hr infusion over 24 hrs
Type: ADME, organism-based
experimental parameters: in vivo, iv
reported endpoint: MRT (h)
Give the quantity in h, number only.

Data point: CC(=O)NC[C@H]1CN(c2ccc(N3CCOCC3)c(F)c2)C(=O)O1 ; MRT = 6.81

====

assay: Total clearance in two-compartment pharmacokinetic/pharmacodynamic model at 200 mg, bid administered as 0.5 hrs infusion
Assay type: ADME, organism-based
experimental parameters: iv
reported endpoint: clearance (mL/min)
Note: unit mL/min is implicit; provide only the numeric part.

Record summary for CC(=O)NC[C@H]1CN(c2ccc(N3CCOCC3)c(F)c2)C(=O)O1 : reported clearance = 248

====

assay: Apparent volume of distribution in two-compartment pharmacokinetic/pharmacodynamic model at 600 mg, bid administered as 0.5 hrs infusion
experimental parameters: iv
reported endpoint: Vd (L)
# output: bare number, implied unit L

Recorded result, CC(=O)NC[C@H]1CN(c2ccc(N3CCOCC3)c(F)c2)C(=O)O1 , Vd: 115

====

assay: Total clearance in two-compartment pharmacokinetic/pharmacodynamic model at 800 mg, bid administered as 0.5 hrs infusion
Type: ADME, organism-based
experimental parameters: iv
reported endpoint: clearance

Noted for CC(=O)NC[C@H]1CN(c2ccc(N3CCOCC3)c(F)c2)C(=O)O1 : its clearance reads 287 mL/min

====

assay: AUC in healthy human at 600 mg, iv, bid administered as 0.5 hr infusion
Format: ADME, organism-based
experimental parameters: plasma
reported endpoint: AUC at 0.5 h (ng·h/mL)
Provide the reading as a plain figure in ng·h/mL.

Reported AUC at 0.5 h ( CC(=O)NC[C@H]1CN(c2ccc(N3CCOCC3)c(F)c2)C(=O)O1 [LINEZOLID] ) = 88100

====

assay: AUC in two-compartment pharmacokinetic/pharmacodynamic model at 800 mg, bid administered as 0.5 hr infusion over 24 hrs
Format: ADME
Parameters: time < 24 hr, dose 800 mg
experimental parameters: in vivo, iv
reported endpoint: AUC at 24 h

Value of measured AUC at 24 h for the entry CC(=O)NC[C@H]1CN(c2ccc(N3CCOCC3)c(F)c2)C(=O)O1 : 47700 ng·h/mL

====

assay: AUC in two-compartment pharmacokinetic/pharmacodynamic model at 800 mg, bid administered as 0.5 hrs infusion
Format: ADME
experimental parameters: iv
reported endpoint: AUC at 0.5 h

For this molecule ( CC(=O)NC[C@H]1CN(c2ccc(N3CCOCC3)c(F)c2)C(=O)O1 [LINEZOLID] ), measured AUC at 0.5 h is 38200 ng·h/mL

====

assay: in vitro
experimental parameters: two-compartment pharmacokinetic/pharmacodynamic model, iv, 600 mg
Description: Terminal half-life in two-compartment pharmacokinetic/pharmacodynamic model at 600 mg, bid administered as 0.5 hrs infusion
reported endpoint: half-life at 0.5 h (h)
Use h as the unit, but write only the number.

Sure, the documented half-life at 0.5 h for CC(=O)NC[C@H]1CN(c2ccc(N3CCOCC3)c(F)c2)C(=O)O1 is 6.54

====

assay: Cmax in two-compartment pharmacokinetic/pharmacodynamic model at 800 mg, bid administered as 0.5 hr infusion over 24 hrs
Type: ADME, organism-based
Parameters: dose 800 mg
experimental parameters: iv
reported endpoint: Cmax (ng/mL)
Enter your answer as a number in ng/mL; do not include the unit.

Quick note, Cmax for CC(=O)NC[C@H]1CN(c2ccc(N3CCOCC3)c(F)c2)C(=O)O1 landed at 19500

====

assay: Tmax in two-compartment pharmacokinetic/pharmacodynamic model at 200 mg, bid administered as 0.5 hrs infusion
Format: ADME, organism-based
experimental parameters: iv
reported endpoint: Tmax (min)
Numbers only here, please. The scale is min.

# molecule CC(=O)NC[C@H]1CN(c2ccc(N3CCOCC3)c(F)c2)C(=O)O1 ; its Tmax = 30

====

assay: Cmax in two-compartment pharmacokinetic/pharmacodynamic model at 600 mg, bid administered as 0.5 hrs infusion
Type: ADME, organism-based
Design: dose 600 mg
experimental parameters: iv
reported endpoint: Cmax (ng/mL)
Please state the figure in ng/mL; there is no need to write the unit.

Briefly, Cmax measured for CC(=O)NC[C@H]1CN(c2ccc(N3CCOCC3)c(F)c2)C(=O)O1 [LINEZOLID] : 13400

====

assay: Mean residence time in two-compartment pharmacokinetic/pharmacodynamic model at 600 mg, bid administered as 0.5 hr infusion over 24 hrs
Format: ADME, organism-based
experimental parameters: in vivo, iv
reported endpoint: MRT (h)
Just the number in h, nothing appended.

Looking up CC(=O)NC[C@H]1CN(c2ccc(N3CCOCC3)c(F)c2)C(=O)O1 , I found its MRT recorded as 8.1

====

assay: Total clearance in two-compartment pharmacokinetic/pharmacodynamic model at 800 mg, bid administered as 0.5 hr infusion over 24 hrs
Assay type: ADME, organism-based
experimental parameters: in vivo, iv
reported endpoint: clearance (mL/min)
Value expressed in mL/min; do not type the unit.

clearance recorded for this molecule, CC(=O)NC[C@H]1CN(c2ccc(N3CCOCC3)c(F)c2)C(=O)O1 , is 228

====

assay: in vivo
experimental parameters: iv, 600 mg
Description: Terminal half-life in two-compartment pharmacokinetic/pharmacodynamic model at 600 mg, bid administered as 0.5 hr infusion over 24 hrs
reported endpoint: half-life (h)
Please respond with the number in h and leave the unit unwritten.

According to the records, this molecule CC(=O)NC[C@H]1CN(c2ccc(N3CCOCC3)c(F)c2)C(=O)O1 displays half-life of 6.18
